Origin of the recorded values: patent US20170101476A1

Molecular target: T1, Human CXCR2 (human, UniProt P25025 1-360)
T1 sequence: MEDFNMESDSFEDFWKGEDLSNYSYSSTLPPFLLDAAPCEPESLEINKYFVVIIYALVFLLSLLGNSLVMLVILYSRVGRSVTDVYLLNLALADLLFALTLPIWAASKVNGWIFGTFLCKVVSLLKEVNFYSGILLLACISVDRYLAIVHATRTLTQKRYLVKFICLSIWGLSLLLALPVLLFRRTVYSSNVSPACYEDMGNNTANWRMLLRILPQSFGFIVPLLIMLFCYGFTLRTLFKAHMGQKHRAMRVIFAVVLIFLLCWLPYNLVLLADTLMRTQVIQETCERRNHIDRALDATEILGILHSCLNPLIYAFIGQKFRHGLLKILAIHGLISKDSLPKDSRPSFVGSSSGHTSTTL
Experiment: cell-based or functional assay
parameter_measured: [35S]GTPγS accumulation IC50, ENA-78 (nM)
Numeric only. Scale: nM

Reference set (3 entries):
# binder, parameter_measured, observed_value
records = [
    ("CXCR20030 (other, not shown: small tags and cut ends) EVQLVESGGGLVQAGGSLRLSCAASGRTFSDYAMGWFRQAPGKEREFVAAITWNGGRVFYTASVKGRFTISRDNAKNTMYLQMNSLKPEDTAVYYCAADKDRRTDYLGHPVAYWGQGTQVTVSSGGGGSGGGGSGGGGSGGGGSGGGGSGGGGSGGGGSEVQLVESGGGLVQAGGSLTLSCAVSGSTFRINTMGWYRRAPGKQRELVAARDRGGYINYVDSVKGRFTVSRDNAKPTMYLQMNSLKPEDTAVYYCHAGTQDRTGRNFDRWGQGTQVTVSS", "[35S]GTPγS accumulation IC50, ENA-78", 1.3),
    ("CXCR20014 (bispecific antibody, not shown: small tags and cut ends) EVQLVESGGGLVQPGGSLRLSCVASGSIVRINTMGWYRQTPGKQRELVADITSGGNINYIDAVKGRFTISRDNTKNTVYLQMNSLKPEDTAVYYCNAEIVVLVGVWTQRARTGNYWGQGTQVTVSSGGGGSGGGGSGGGGSGGGGSGGGGSGGGGSGGGGSEVQLVESGGELVQPGGSLRLSCAASGSILTINAMGWYRQAPGKQRELVVRRTRGGSTTYQDSVKGRFTISADIAKKTMYLQMNSLKPEDTAVYYCMLDDRGGVYWGQGTQVTVSS", "[35S]GTPγS accumulation IC50, ENA-78", 1.66),
    ("CXCR20032 (bispecific antibody, not shown: small tags and cut ends) EVQLVESGGELVQPGGSLRLSCAASGSILTINAMGWYRQAPGKQRELVVRRTRGGSTTYQDSVKGRFTISADIAKKTMYLQMNSLKPEDTAVYYCMLDDRGGVYWGQGTQVTVSSGGGGSGGGGSGGGGSGGGGSGGGGSGGGGSGGGGSEVQLVESGGGLVQAGGSLRLSCAASGRTFSDYAMGWFRQAPGKEREFVAAITWNGGRVFYTASVKGRFTISRDNAKNTMYLQMNSLKPEDTAVYYCAADKDRRTDYLGHPVAYWGQGTQVTVSS", "[35S]GTPγS accumulation IC50, ENA-78", 0.116),
]

Give the measured [35S]GTPγS accumulation IC50, ENA-78 for CXCR20031 (bispecific antibody, not shown: small tags and cut ends) EVQLVESGGELVQPGGSLRLSCAASGSILTINAMGWYRQAPGKQRELVVRRTRGGSTTYQDSVKGRFTISADIAKKTMYLQMNSLKPEDTAVYYCMLDDRGGVYWGQGTQVTVSSGGGGSGGGGSGGGGSGGGGSGGGGSGGGGSGGGGSEVQLVESGGGLVQPGGSLRLSCVASGRIFSSNAMGWFRQAPGKEREFVAAITWRSGGSAYYADSAKGRFTISRDNAKNTVYLQMNSLKPEDTAVYYCAAGGSSWLSFPPDYWGQGTQVTVSS
1.38

Give the measured [35S]GTPγS accumulation IC50, ENA-78 for CXCR20021 (bispecific antibody, not shown: small tags and cut ends) EVQLVESGGGLVQAGESLRLSCAASGSTFDFKVMGWYRQPPGKQREGVAAIRLSGNMHYAESVKGRFTISKANAKNTVYLQMNSLRPEDTAVYYCKVNIRGQDYWGQGTQVTVSSGGGGSGGGGSGGGGSGGGGSGGGGSGGGGSGGGGSEVQLVESGGGLVQPGGSLRLSCVASGRIFSSNAMGWFRQAPGKEREFVAAITWRSGGSAYYADSAKGRFTISRDNAKNTVYLQMNSLKPEDTAVYYCAAGGSSWLSFPPDYWGQGTQVTVSS
0.787

Give the measured [35S]GTPγS accumulation IC50, ENA-78 for CXCR20035 (other, not shown: small tags and cut ends) EVQLVESGGGLVQAGGSLTLSCAVSGSTFRINTMGWYRRAPGKQRELVAARDRGGYINYVDSVKGRFTVSRDNAKPTMYLQMNSLKPEDTAVYYCHAGTQDRTGRNFDRWGQGTQVTVSSGGGGSGGGGSGGGGSGGGGSGGGGSGGGGSGGGGSEVQLVESGGGLVQPGGSLRLSCVASGRIFSSNAMGWFRQAPGKEREFVAAITWRSGGSAYYADSAKGRFTISRDNAKNTVYLQMNSLKPEDTAVYYCAAGGSSWLSFPPDYWGQGTQVTVSS
1.17
